# System: KB cells
# assaySetup: 2 h
quantityMeasured: pEC50
A value of pEC50 is the negative decimal logarithm of a concentration given in moles per litre.

Examples with their reported pEC50 follow.
compound	pEC50
CC[C@H]1c2cc3[nH]c4c(c3C)C(=O)C(C(=O)OC)c4c3nc(cc4[nH]c(cc(n2)[C@@H]1C)c(C(C)=O)c4C)[C@@H](C)[C@@H]3CCC(=O)NCCC[C@H](NC(=O)CC[P+](c1ccccc1)(c1ccccc1)c1ccccc1)C(=O)NCCSSC[C@H](NC(=O)[C@H](CC(=O)NCCS(=O)(=O)O)NC(=O)CC[C@H](NC(=O)c1ccc(NCc2cnc3nc(N)[nH]c(=O)c3n2)cc1)C(=O)O)C(=O)O (stereo partly drawn)	8.28
CC[C@H]1c2cc3[nH]c4c(c3C)C(=O)C(C(=O)OC)c4c3nc(cc4[nH]c(cc(n2)[C@@H]1C)c(C(C)=O)c4C)[C@@H](C)[C@@H]3CCC(=O)NNC(=O)OCCSSC[C@H](NC(=O)CCOCCOCCOCCOCCOCCOCCOCCOCCNC(=O)CC[C@H](NC(=O)c1ccc(NCc2cnc3nc(N)[nH]c(=O)c3n2)cc1)C(=O)O)C(=O)O (single isomer, unassigned) [Compound 76d]	6.47

Data request, read-out pEC50, for CC[C@H]1c2cc3[nH]c4c(c3C)C(=O)C(C(=O)OC)c4c3nc(cc4[nH]c(cc(n2)[C@@H]1C)c(C(C)=O)c4C)[C@@H](C)[C@@H]3CCC(=O)N[C@@H](CC(=O)N[N+](C)(C)C)C(=O)NNC(=O)OCCSSC[C@H](NC(=O)C[C@H](NC(=O)CC[C@H](NC(=O)c1ccc(NCc2cnc3nc(N)[nH]c(=O)c3n2)cc1)C(=O)O)C(=O)NCCS(=O)(=O)O)C(=O)O (stereo partly drawn) [Compound 95a] 6.78

----------
# Test system: KB cells
# assaySetup: Table 2; mitochondrial-targeted modified PDT agents, free drugs in DMSO, 2 h incubation, laser 32 min, then 24 h
quantityMeasured: pEC50
Note on pEC50: it is the negative log10 of concentration, concentration in mol/L.

Guide cases for pEC50, answers given:
compound	assayedSystem	testResult
CC[C@H]1c2cc3[nH]c4c(c3C)C(=O)C(C(=O)OC)c4c3nc(cc4[nH]c(cc(n2)[C@@H]1C)c(C(C)=O)c4C)[C@@H](C)[C@@H]3CCC(=O)N[C@@H](CCC(=O)NC1C(O)OC(CO)C(O)C1O)C(=O)O (stereo partly shown)	KB cells	6.26
CC[C@H]1c2cc3[nH]c4c(c3C)C(=O)[C@H](C(=O)OC)c4c3nc(cc4[nH]c(cc(n2)[C@@H]1C)c(C(C)=O)c4C)[C@@H](C)[C@@H]3CCC(=O)O [Compound 1, Bacteriopheophorbide-a, reference compound]	KB cells	6.13
CC[C@H]1c2cc3[nH]c4c(c3C)C(=O)C(C(=O)OC)c4c3nc(cc4[nH]c(cc(n2)[C@@H]1C)c(C(C)=O)c4C)[C@@H](C)[C@@H]3CCC(=O)NCCC[C@@H](C(=O)OC(C)(C)C)[N+](C)(C)C (stereo partly shown) [Compound 11b]	KB cells	7.64

With those in mind, consider the next compound.
What pEC50 value was documented for this compound, CC[C@H]1c2cc3[nH]c4c(c3C)C(=O)C(C(=O)OC)c4c3nc(cc4[nH]c(cc(n2)[C@@H]1C)c(C(C)=O)c4C)[C@@H](C)[C@@H]3CCC(=O)NCCC[C@@H](C(=O)O)[N+](C)(C)C (stereo partly shown) [Compound 12b] ? 7.81
